System: TNF production by human monocytes
Experiment: In vitro TNF production by LPS-stimulated human monocytes (ELISA)
Assay type: cell-based
Conditions: Homo sapiens, Monocyte; Table B; LPS 50 ng/ml, 24 h; read-out: IC50, LPS induced TNF human monocyte data
Protocol: The effects of the compounds enumerated above on the in vitro production of TNF by human monocytes was examined using the following protocol. Bacterial lipopolysaccharide (LPS) was used to induce TNF production by human peripheral blood monocytes. TNF activity was measured by a modification of Winston et al., ELISA, described below. […] The cells were allowed to adhere for 2 hours, after which time non-adherent cells were removed by gentle washing. […]
metric: IC50 (nM)
Answers are plain numbers, in nM.

For each entry beneath this line, provide reported IC50.
1. COc1ccc(-c2nc3n(c2-c2ccncc2)CCC3=O)cc1 [Compound E]
2. [O-][S+]1CCn2c1nc(-c1ccc(F)cc1)c2-c1ccncc1 (stereo not drawn) [Compound I]
3. O=S1(=O)CCn2c1nc(-c1ccc(F)cc1)c2-c1ccncc1 [Compound J]
4. Fc1ccc(-c2c(-c3ccncc3)nc3n2CCC3)cc1 [Compound N]
5. COc1ccc(-c2nc3n(c2-c2ccncc2)CCC3O)cc1 (stereo not drawn) [Compound F]
6. CC(=O)OCSc1ccc(-c2nc3n(c2-c2ccncc2)CCC3)cc1 [Compound 10]

Result:
[1000, 200, 9000, 1000, 1000, 3000]

For each entry beneath this line, provide reported IC50.
1. CSc1ccc(-c2nc3n(c2-c2ccnc(C)c2)CCC3)cc1 [Compound 5]
2. CC[S+]([O-])c1ccc(-c2nc3n(c2-c2ccncc2)CCC3)cc1 (stereo not drawn) [Compound 4]

Result:
1: 7000; 2: 7000
